- Test: Apparent permeability across apical to basolateral side in pig LLC-PK1 cells
- Type: ADME, cell-based, Sus scrofa
Please respond with reported Papp A→B for every item in the list.
Answers are plain numbers, in ×10⁻⁶ cm/s.

Some solved cases for reference:
{"columns": ["Mol", "Papp A→B [×10⁻⁶ cm/s]"],
 "data": [
  ["Cn1cc(C(=O)Nc2ccc(-c3ccccc3)c(C(F)(F)F)c2)c(=O)c2cnccc21", 5.7],
  ["Cn1nc(C(=O)Nc2ccc(-c3ccccc3)c(C(F)(F)F)c2)c(=O)c2ccccc21", 2.3],
  ["Cn1cc(C(=O)Nc2ccc(-c3ccccc3)c(C(F)(F)F)c2)c(=O)c2ncccc21", 16]
]}

I have 4 compounds here; please give me Papp A→B for each one.
1. Cn1cc(C(=O)Nc2ccc(-c3ccccc3)c(C(F)(F)F)c2)c(=O)c2cccnc21
2. Cn1cc(C(=O)Nc2ccc(-c3ccccn3)c(C(F)(F)F)c2)c(=O)c2ccccc21
3. Cn1cc(C(=O)Nc2ccc(-c3ccccc3)c(C(F)(F)F)n2)c(=O)c2cnccc21
4. Cn1cc(C(=O)Nc2ccc(-c3ccncc3)c(C(F)(F)F)c2)c(=O)c2ccccc21

# output
1. 2.2
2. 11
3. 6.7
4. 15

Report Papp A→B for every entry below.
1. Cn1cc(C(=O)Nc2ccc(-c3cccnc3)c(C(F)(F)F)c2)c(=O)c2ccccc21
2. Cn1cc(C(=O)Nc2ccc(-c3ccccc3)c(C(F)(F)F)c2)c(=O)c2ccncc21
3. Cn1cc(C(=O)Nc2ccc(-c3ccccc3)c(C(F)(F)F)c2)c(=O)c2ccccc21

# output
1. 18
2. 3.4
3. 1.2

# input Fill in the blank: the reported Papp A→B of Cn1cc(C(=O)Nc2cnc(-c3ccccc3)c(C(F)(F)F)c2)c(=O)c2ccccc21 is ____.
# output 11
